- system.under.test: recombinant human SAE enzyme (Homo sapiens, UniProt Q9UBT2)
- procedure.details: SAE HTRF Enzyme Assay
- condition.label: class symbols A-C
parameter.measured: IC50

Worked cases, IC50 given:
{"compound": "NS(=O)(=O)OC[C@H]1C[C@@H](Nc2ncncc2C(=O)c2ccn(Cc3cccc(Br)c3)c2)C[C@@H]1O", "system.under.test": "recombinant human SAE enzyme (Homo sapiens, UniProt Q9UBT2)", "IC50": "< 10 nM"}
{"compound": "NS(=O)(=O)OC[C@H]1C[C@@H](Nc2ncncc2C(=O)c2ccn(CC#CC3(O)COC3)n2)C[C@@H]1O", "system.under.test": "recombinant human SAE enzyme (Homo sapiens, UniProt Q9UBT2)", "IC50": "100 to 1000 nM"}

Record request: IC50 value, item NS(=O)(=O)OC[C@H]1C[C@@H](Nc2ncncc2C(=O)c2ccn(CC3CCCO3)n2)C[C@@H]1O (mixture of isomers) 100 to 1000 nM

###

- system.under.test: recombinant human SAE enzyme (Homo sapiens, UniProt Q9UBT2)
- Sequence (Q9UBT2 1-640): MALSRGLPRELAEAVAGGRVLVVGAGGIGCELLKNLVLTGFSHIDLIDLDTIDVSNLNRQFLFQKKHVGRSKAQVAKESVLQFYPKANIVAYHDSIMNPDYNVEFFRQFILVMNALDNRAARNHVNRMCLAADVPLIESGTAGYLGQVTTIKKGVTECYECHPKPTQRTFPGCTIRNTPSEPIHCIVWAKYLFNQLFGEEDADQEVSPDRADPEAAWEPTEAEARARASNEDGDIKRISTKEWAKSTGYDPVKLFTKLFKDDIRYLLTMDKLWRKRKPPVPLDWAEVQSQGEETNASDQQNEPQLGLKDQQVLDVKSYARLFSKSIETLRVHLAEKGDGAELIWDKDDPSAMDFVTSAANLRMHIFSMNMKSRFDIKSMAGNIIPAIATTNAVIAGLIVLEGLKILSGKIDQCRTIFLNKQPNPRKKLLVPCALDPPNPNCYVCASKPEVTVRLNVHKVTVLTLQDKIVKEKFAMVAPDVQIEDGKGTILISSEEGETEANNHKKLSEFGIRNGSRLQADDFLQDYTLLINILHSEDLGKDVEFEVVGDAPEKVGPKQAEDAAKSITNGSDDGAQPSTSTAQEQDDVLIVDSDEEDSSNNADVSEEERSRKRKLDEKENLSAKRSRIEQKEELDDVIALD
- Sequence (Q9UBE0 1-346 partner): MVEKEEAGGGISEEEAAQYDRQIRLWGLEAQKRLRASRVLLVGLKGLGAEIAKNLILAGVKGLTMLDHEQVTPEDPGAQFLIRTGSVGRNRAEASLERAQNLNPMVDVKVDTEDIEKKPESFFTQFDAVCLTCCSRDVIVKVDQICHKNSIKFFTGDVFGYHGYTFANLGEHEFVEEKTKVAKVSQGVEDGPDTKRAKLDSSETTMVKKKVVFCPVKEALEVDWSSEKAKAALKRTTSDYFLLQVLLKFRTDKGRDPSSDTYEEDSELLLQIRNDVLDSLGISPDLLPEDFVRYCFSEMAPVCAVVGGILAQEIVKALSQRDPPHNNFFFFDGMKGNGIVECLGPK
- procedure.details: SAE HTRF Enzyme Assay
- condition.label: class symbols A-C
Documented IC50 across a set of molecules

Worked cases, IC50 given:
{"smiles": "NS(=O)(=O)OC[C@H]1C[C@@H](Nc2ncncc2C(=O)c2ccn(Cc3ccccc3Cl)n2)[C@H](O)[C@@H]1O", "IC50": "< 10 nM"}
{"smiles": "Cn1ccc(C(=O)c2cncnc2N[C@@H]2C[C@H](COS(N)(=O)=O)[C@@H](O)[C@H]2O)n1", "IC50": "100 to 1000 nM"}

Now for a further molecule.
Record request: IC50 value, item "NS(=O)(=O)OC[C@H]1C[C@@H](Nc2ncncc2C(=O)c2ccn(Cc3cc(C(F)(F)F)ccc3F)n2)[C@H](O)[C@@H]1O" < 10 nM

###

- system.under.test: recombinant human SAE enzyme (Homo sapiens)
- procedure.details: SAE HTRF Enzyme Assay
- condition.label: class symbols A-C
pIC50: −log10 of the molar value.
parameter.measured: pIC50

Worked cases, pIC50 given:
{"compound": "NS(=O)(=O)OC[C@H]1C[C@@H](Nc2ncncc2C(=O)c2ccn(Cc3ccc(F)c(F)c3)n2)[C@@H](O)[C@@H]1O", "pIC50": "> 8.00"}
{"compound": "NS(=O)(=O)OC[C@H]1C[C@@H](Nc2ncncc2C(=O)c2ccn(Cc3ccc(Cl)c(C(F)(F)F)c3)n2)[C@H](O)[C@@H]1O", "pIC50": "> 8.00"}
{"compound": "CN(c1ncncc1C(=O)c1ccn(Cc2cccc(Br)c2)n1)[C@@H]1C[C@H](COS(N)(=O)=O)[C@@H](O)C1", "pIC50": "7.00 to 8.00"}
{"compound": "NS(=O)(=O)OC[C@H]1C[C@@H](Nc2ncncc2C(=O)c2ccn(Cc3cc(Cl)ccn3)n2)[C@H](O)[C@@H]1O", "pIC50": "> 8.00"}
{"compound": "NS(=O)(=O)OC[C@H]1C[C@@H](Nc2ncncc2C(=O)c2ccn(Cc3ccc(F)c(Br)c3)n2)[C@H](O)[C@@H]1O", "pIC50": "> 8.00"}
{"compound": "NS(=O)(=O)OC[C@H]1C[C@@H](Nc2ncncc2C(=O)c2ccn(Cc3ccc(OC(F)(F)F)cc3)n2)C[C@@H]1O", "pIC50": "7.00 to 8.00"}
{"compound": "NS(=O)(=O)OC[C@H]1C[C@@H](Nc2ncncc2C(=O)c2ccn(Cc3cccc(Cl)c3)n2)[C@@H](F)[C@@H]1O", "pIC50": "> 8.00"}
{"compound": "NS(=O)(=O)OC[C@H]1C[C@@H](Nc2ccncc2C(=O)c2ccn(Cc3ccccc3)n2)[C@H](O)[C@@H]1O", "pIC50": "> 8.00"}
{"compound": "NS(=O)(=O)OC[C@H]1C[C@@H](Nc2ncncc2C(=O)c2ccn(Cc3ccccc3Cl)n2)C[C@@H]1O", "pIC50": "> 8.00"}
{"compound": "CC1CC1Cn1ccc(C(=O)c2cncnc2N[C@@H]2C[C@H](COS(N)(=O)=O)[C@@H](O)C2)n1 (stereo partly shown)", "pIC50": "7.00 to 8.00"}

Record request: pIC50 value, item "Cc1ccc(Cn2ccc(C(=O)c3cncnc3N[C@@H]3C[C@H](COS(N)(=O)=O)[C@@H](O)[C@H]3O)n2)cc1F" > 8.00

Record request: pIC50 value, item "CC(C)n1ccc(C(=O)c2cncnc2N[C@@H]2C[C@H](COS(N)(=O)=O)[C@@H](O)[C@H]2O)n1" 7.00 to 8.00

Record request: pIC50 value, item "NS(=O)(=O)OC[C@H]1C[C@@H](Nc2ncncc2C(=O)c2ccn(Cc3cccc(F)c3)n2)C[C@@H]1O" > 8.00

###

- system.under.test: recombinant human SAE enzyme (Homo sapiens)
- procedure.details: SAE HTRF Enzyme Assay
- Type: biochemical
- condition.label: compound concentration 0.111 μM; read-out: Percent Inhibition
parameter.measured: inhibition at 0.111 µM
Number first, unit second.

Worked cases, inhibition at 0.111 µM given:
{"compound": "NS(=O)(=O)OC[C@H]1C[C@@H](Nc2ncncc2C(=O)c2cc(CO)n(Cc3cccc(Br)c3)n2)C[C@@H]1O [Compound I-90]", "inhibition at 0.111 µM": "98%"}
{"compound": "NS(=O)(=O)OC[C@H]1C[C@@H](Nc2ncncc2C(=O)c2ccn(Cc3cc(C(F)(F)F)ccc3Cl)n2)[C@@H](F)[C@@H]1O [Compound I-181]", "inhibition at 0.111 µM": "94%"}
{"compound": "NS(=O)(=O)OC[C@H]1C[C@@H](Nc2ncncc2C(=O)c2ccn(Cc3cc(Cl)ccn3)n2)[C@H](O)[C@@H]1O [Compound I-70]", "inhibition at 0.111 µM": "99%"}
{"compound": "NS(=O)(=O)OC[C@H]1C[C@@H](Nc2ncncc2C(=O)c2ccn(Cc3cccc(F)c3F)n2)[C@H](O)[C@@H]1O [Compound I-327]", "inhibition at 0.111 µM": "99%"}
{"compound": "NS(=O)(=O)OC[C@H]1C[C@@H](Nc2ncncc2C(=O)c2ccn(Cc3ccc(F)c(Cl)c3)n2)[C@@H](F)[C@@H]1O [Compound I-122]", "inhibition at 0.111 µM": "99%"}

Now for a further compound.
Record request: inhibition at 0.111 µM value, item Cn1cc(C#CCn2ccc(C(=O)c3cncnc3N[C@@H]3C[C@H](COS(N)(=O)=O)[C@@H](O)C3)n2)cn1 [Compound I-308] 27%

###

Documented inhibition at 0.111 µM across a set of compounds
- system.under.test: recombinant human SAE enzyme (Homo sapiens, UniProt Q9UBT2)
- procedure.details: SAE HTRF Enzyme Assay
- Format: biochemical
- condition.label: compound concentration 0.111 μM; read-out: Percent Inhibition
Write down the numeric answer in % and omit the unit.

{"smiles": "Cc1ccc(Cn2ccc(C(=O)c3cncnc3N[C@@H]3C[C@H](COS(N)(=O)=O)[C@@H](O)C3)n2)cc1F", "result.units": "%", "inhibition at 0.111 µM": 98}
{"smiles": "Cc1ccc(Cn2ccc(C(=O)c3cncnc3N[C@@H]3C[C@H](COS(N)(=O)=O)[C@@H](O)[C@@H]3F)c2)o1", "result.units": "%", "inhibition at 0.111 µM": 99}
{"smiles": "NS(=O)(=O)OC[C@H]1C[C@@H](Nc2ncncc2C(=O)c2ccn(Cc3ccc(Cl)c(Br)c3)n2)[C@H](O)[C@@H]1O", "result.units": "%", "inhibition at 0.111 µM": 99}
{"smiles": "CC(C)=C(C)n1ccc(C(=O)c2cncnc2N[C@@H]2C[C@H](COS(N)(=O)=O)[C@@H](O)C2)n1", "result.units": "%", "inhibition at 0.111 µM": 77}
{"smiles": "NS(=O)(=O)OC[C@H]1C[C@@H](Nc2ncncc2C(=O)c2ccn(CC#CCC3CCCC3)n2)C[C@@H]1O", "result.units": "%", "inhibition at 0.111 µM": 70}

API: value(readout=inhibition at 0.111 µM, system=recombinant human SAE enzyme (Homo sapiens, UniProt Q9UBT2)) for record "NS(=O)(=O)OC[C@H]1C[C@@H](Nc2ncncc2C(=O)c2ccn(Cc3ccc(F)c(I)c3)n2)C[C@@H]1O" 100

API: value(readout=inhibition at 0.111 µM, system=recombinant human SAE enzyme (Homo sapiens, UniProt Q9UBT2)) for record "NS(=O)(=O)OC[C@@H]1C[C@@H](Nc2ncncc2C(=O)c2ccn(Cc3ccccc3)n2)C[C@@H]1O" 79
